test description: Volume of distribution at steady state in Sprague-Dawley rat at 1 mg/kg, iv after 24 hrs by LC-MS/MS analysis
Type: ADME, organism-based
Parameters: dose 1 mg/kg, route intravenous
experimental setup: in vivo, read-out: Vdss
Where a SMILES comes first, the peptide text is derived from it. [ ]: non-standard residue; d: D form. Arg(Me) = CNC(=N)NCCC[C@H](N)C(=O)O; d4Pal = N[C@H](Cc1ccncc1)C(=O)O; azaGly = NNC(=O)O
measure name: Vd (L/kg)
Respond with the bare value in L/kg.

Some solved entries appear below for comparison.
INSERT INTO assay_data (compound, value_reported) VALUES
  ('CNC(=N)NCCC[C@H](NC(=O)[C@H](CC(C)C)NC(=O)NNC(=O)[C@H](Cc1ccccc1)NC(=O)[C@H](CO)NC(=O)[C@H](CC(N)=O)NC(=O)[C@@H](Cc1ccncc1)NC(=O)[C@H](N)Cc1ccc(O)cc1)C(=O)N[C@@H](Cc1ccccc1)C(N)=O [KISS1-305] (H-[dY][d4Pal]NSF[azaGly]L[Arg(Me)]F-NH2)', 1.58),
  ('CNC(=N)NCCC[C@H](NC(=O)[C@H](CC(C)C)NC(=O)NNC(=O)[C@H](Cc1ccccc1)NC(=O)[C@@H](NC(=O)[C@H](CC(N)=O)NC(=O)[C@@H](Cc1c[nH]c2ccccc12)NC(=O)[C@@H](Cc1ccc(O)cc1)NC(C)=O)[C@@H](C)O)C(=O)N[C@@H](Cc1ccccc1)C(N)=O', 0.896),
  ('CNC(=N)NCCC[C@H](NC(=O)[C@H](CC(C)C)NC(=O)NNC(=O)[C@H](Cc1ccccc1)NC(=O)[C@@H](NC(=O)[C@H](CC(N)=O)NC(=O)[C@@H](Cc1c[nH]c2ccccc12)NC(=O)[C@@H](Cc1ccc(O)cc1)NC(C)=O)[C@@H](C)O)C(=O)N[C@@H](Cc1c[nH]c2ccccc12)C(N)=O (Ac-[dY][dW]NTF[azaGly]L[Arg(Me)]W-NH2)', 0.562),
  ('CNC(=N)NCCC[C@H](NC(=O)[C@H](CC(C)C)NC(=O)NNC(=O)[C@H](Cc1ccccc1)NC(=O)[C@@H](NC(=O)[C@H](CC(N)=O)NC(=O)[C@@H](Cc1ccncc1)NC(=O)[C@@H](Cc1ccc(O)cc1)NC(C)=O)[C@@H](C)O)C(=O)N[C@@H](Cc1c[nH]c2ccccc12)C(N)=O', 0.547);

// below: Vd requested for another compound
Prompt: Endpoint output: Vd of `CNC(=N)NCCC[C@H](NC(=O)[C@H](CC(C)C)NC(=O)NNC(=O)[C@H](Cc1ccccc1)NC(=O)[C@@H](NC(=O)[C@H](CC(N)=O)NC(=O)[C@@H](Cc1c[nH]c2ccccc12)NC(=O)[C@H](N)Cc1ccc(O)cc1)[C@@H](C)O)C(=O)N[C@@H](Cc1c[nH]c2ccccc12)C(N)=O` . Value?
Completion: 1.46
